// data source = patent US20250263490A1

Molecular target: T1, recombinant human domain 1-3His6 of the cation-independent mannose-6-phosphate receptor (human, UniProt P11717 41-467)
T1 construct: Biotinylated (NHS-PEG4-biotin) for BLI; Glycosylated; also called hDom1-3His6; hCI-M6PRD1-D3
Assay: BLI exp 2, dissoc pH 5
Description: For each of the 11 anti-CI-M6PR VHHs, a biolayer interferometry (BLI) experiment was performed in which the hDom₁₋₃His₆ was biotinylated and coupled to streptavidin biosensor tips. Afterwards, the tips were incubated with serially diluted VHHs during the association phase and dissociation was performed at pH 7.4. Similarly, dissociation was performed at pH 7.0, pH 6.0 and pH 5.0 as well after regeneration of the biosensor tips. […]
Quantity measured: koff (s⁻¹)

- Binder: "anti-CI-M6PR VHH11 (VHH, His6-tagged; made in Pichia pastoris) VHH: QVQLQESGGGLVQAGDSLKLSCTASGPTFSEITGGWFRQVPGKEREFVASISSTGITTYYTDSVKGRFTVSRDNAKNTMYLQMNSLKPEDTGVYYCAARSTSRSIAITVGYDYWGQGTQVTVSS"
  koff, s⁻¹: 0.0253

(a) anti-CI-M6PR VHH6 (VHH, His6-tagged; made in E. coli) VHH: QVQLQESGGGLVQAGGSLRLSCAVSGSISSIGGMGWFRQAPGKQREFVAVILNNSGMTSYADSVKGRFTISRGNSKNTMYLQMNSLKPEDTAVYYCNYSGYWGQGTQVTVSS
(b) anti-CI-M6PR VHH8 (VHH, His6-tagged (Pichia pastoris)) VHH: QVQLQESGGGLVQAGGSLRLSCEASGRTFNTYNWGWFRQAPGKEREFVAAIRWSSSKTSYADSVKGRFTISRDNAKNTIYLQMNSLKPEDTAVYYCAASIVDFTTNPSHFGSWGQGTQVTVSS
(c) anti-CI-M6PR VHH7 (VHH, His6-tagged (Pichia pastoris)) VHH: QVQLQESGGGLVQPGGSLRLSCAASGIIFSDNRMDWYRQAPGKQREWVATLASYGWKTYADSVKGRFTISRDNTKNTVYLRMNSLKPEDTAVYYCKASSPVLNDIWGQGTQVTVSS
Please list these in order of increasing koff. Thank you! Reply format: the labels, ordered as requested.
a, c, b
(a: 0.0156 s⁻¹, c: 0.055 s⁻¹, b: 0.084 s⁻¹)
